Values compiled from patent US20210040118A1.

- Tested system: PD-1/PD-L1 (Homo sapiens)
- Construct: Recombinant human PD-L1 protein (19-238) with a His-tag at the C-terminus; purchased AcroBiosystems PD1-H5229 (PD-L1); PD1-H5257 (PD-1)
- Sequence (Q9NZQ7 19-238): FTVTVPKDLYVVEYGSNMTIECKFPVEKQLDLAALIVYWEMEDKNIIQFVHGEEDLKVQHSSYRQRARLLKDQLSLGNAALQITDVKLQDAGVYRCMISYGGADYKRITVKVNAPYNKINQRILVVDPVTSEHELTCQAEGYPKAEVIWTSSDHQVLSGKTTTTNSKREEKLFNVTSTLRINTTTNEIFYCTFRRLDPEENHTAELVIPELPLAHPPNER
- Test name: PD-1/PD-L1 homogenous time-resolved fluorescence (HTRF) binding assay
- Condition info: recombinant human PD-L1 (19-238) His-tag / human PD-1 (25-167) Fc tag, class symbols
IC50: recorded values

Below, each entry is followed by its recorded IC50 result.
Molecule	IC50
Cc1c(NC(=O)c2nnc(C(C)N)o2)cccc1-c1cccc(NC(=O)c2nnc(C(C)N)o2)c1C (stereo not drawn) [Example 19]	25 to 100 nM
O=C(Nc1cccc(-c2cccc(NC(=O)c3nc4c(s3)CN(CCO)CC4)c2Cl)c1Cl)c1nc2c(s1)CN(CCO)CC2 [Example 91]	< 25 nM
Cc1nc(C(=O)N2CCc3c(-c4cccc5c4CCN5C(=O)c4nc(C)c(CN5CCCC[C@H]5C(=O)O)s4)cccc32)sc1CN1CCCC[C@H]1C(=O)O [Example 56]	< 25 nM
Cc1c(NC(=O)c2nnc([C@H](C)N3CCCC[C@H]3C(=O)O)o2)cccc1-c1cccc(NC(=O)c2nnc([C@H](C)N3CCCC[C@H]3C(=O)O)o2)c1C [Example 16]	< 25 nM
O=C(O)CN1CCc2nc(C(=O)Nc3cccc(-c4cccc(NC(=O)c5nc6c(s5)CN(CC(=O)O)CC6)c4Cl)c3Cl)sc2C1 [Example 65]	< 25 nM

For Cc1c(NC(=O)c2nc3c(s2)CN(CCCC(=O)O)CC3)cccc1-c1cccc(NC(=O)c2nc3c(s2)CN(CCCC(=O)O)CC3)c1C [Example 78] on PD-1/PD-L1 (Homo sapiens), measured IC50 was < 25 nM
